Biological target: T1, VEGFR-2-Fc (human, UniProt P35968 20-322)
T1 construct: domain: first 3 Ig domains; used as conditioned supernatant of 293T cells; also called VEGFR-2-Fc fusion protein; not shown: Fc fragment of the pIg vector
T1 sequence (P35968 20-322): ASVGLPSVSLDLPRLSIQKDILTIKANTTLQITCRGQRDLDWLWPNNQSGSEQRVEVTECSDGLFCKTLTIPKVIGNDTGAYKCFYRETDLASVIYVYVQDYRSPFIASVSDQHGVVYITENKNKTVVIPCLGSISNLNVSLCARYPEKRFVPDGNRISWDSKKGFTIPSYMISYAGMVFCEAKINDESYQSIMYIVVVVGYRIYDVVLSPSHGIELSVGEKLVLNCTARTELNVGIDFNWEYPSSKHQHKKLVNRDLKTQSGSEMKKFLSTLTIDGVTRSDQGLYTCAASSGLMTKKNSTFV
Test: receptor-Fc IP
Excerpt: The binding assay procedure was identical to the immunoprecipitation using pentahistidine antibody described in Example 2, apart from the composition of the immunoprecipitation (IP) mixes. […]
Recorded Metric: binding result

// known answers, use as guide
12-5 (ligand) GQNHHEVVKFMDVYQRSYCHPIETLVDIFQEFGVATNTFFKPPCVSVYRCGGCCNDEGLECVPTEESNITMQIMRIKPHQGQHIGEMSFANHTSCRCMSKLD :: no binding
12-9 (ligand) GQNHHEVVKFMDVYQRSYCHPIETLVDIFQEFGVATNTFFKPPCVSVYRCGGCCNDEGLECVPTEESNITMQIMRITVPLSQGPKPVTISFLQHNKCECRPKKD :: no binding
72-7 (ligand) GQNHHEVVKSIDNEWRKTQCMPREVCIDVGKEFGVATNTFFKPPCVSVYRCGGCCNSEGLQCVPTEESNITMQIMRIKPHQGQHIGEMSFANHTSCRCMSKLD :: no binding
83-15 (ligand) AHYNTEILKFMDVYQRSYCHPIETLVDIFQEYPDEIEYIFKPPCVSVYRCGGCCNSEGLQCVPTEESNITMQIMRITVPLSQGPKPVTISFANHTSCRCMSKLD :: binds
12-15 (ligand) GQNHHEVVKFMDVYQRSYCHPIETLVDIFQEFGVATNTFFKPPCVSVYRCGGCCNSEGLQCVPTEESNITMQIMRITVPLSQGPKPVTISFANHTSCRCMSKLD :: binds

**Query** For the binder 53-3 (ligand) AHYNTEILKSIDNEWRKTQCMPIETLVDIFQEYPDEIEYIFKPPCVSVYRCGGCCNSEGLQCVPTEESNITMQIMRIKPHQGQHIGEMSFLQHNKCECRPKKD , give its measured binding result value.
**Result** binds

**Query** For the binder 14-9 (ligand) GQNHHEVVKFMDVYQRSYCHPIETLVDIFQEFGVATNTFFKPSCVPLMRCGGCCNDEGLECVPTEESNITMQIMRITVPLSQGPKPVTISFLQHNKCECRPKKD , give its measured binding result value.
**Result** binds

**Query** For the binder 82-11 (ligand) AHYNTEILKFMDVYQRSYCHPIETLVDIFQEFGVATNTFFKPPCVSVYRCGGCCNSEGLQCVPTEESNITMQIMRITVPLSQGPKPVTISFLQHNKCECRPKKD , give its measured binding result value.
**Result** binds

**Query** For the binder 82-9 (ligand) AHYNTEILKFMDVYQRSYCHPIETLVDIFQEFGVATNTFFKPPCVSVYRCGGCCNDEGLECVPTEESNITMQIMRITVPLSQGPKPVTISFLQHNKCECRPKKD , give its measured binding result value.
**Result** binds
